B1: DUSP5 (parent)
chain: YSEYPECCVDVKPISQEKIESERA

Variants of: B1
Experiment: protein stability index of a GFP-peptide fusion (GPS, HEK-293T) (PSI 1-6); higher = more stable;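 also: lentivirally expressed fusions sorted by FACS into six bins by GFP to DsRed ratio, PSI derived from sequencing read proportions per bin multiplied by bin number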
Details: c terminus: a fixed tail appended
Parameter threshold = 4. Response is fulfilled when protein stability index meets or exceeds it, else not fulfilled.

IN: Could you tell me if the measured protein stability index of YSQYPECCVDVKPISQEKIESERA [E3Q] reaches 4 or more?
OUT: fulfilled

IN: Could you tell me if the measured protein stability index of YSEYPESCVDVKPISQEKIESERA [C7S] reaches 4 or more?
OUT: fulfilled

IN: Could you tell me if the measured protein stability index of YSEYPERCVDVKPISQEKIESERA [C7R] reaches 4 or more?
OUT: fulfilled

IN: Could you tell me if the measured protein stability index of YSEYPECKVDVKPISQEKIESERA [C8K] reaches 4 or more?
OUT: fulfilled

IN: Could you tell me if the measured protein stability index of YSEYPHCCVDVKPISQEKIESERA [E6H] reaches 4 or more?
OUT: not fulfilled

IN: Could you tell me if the measured protein stability index of YSEYAECCVDVKPISQEKIESERA [P5A] reaches 4 or more?
OUT: fulfilled

IN: Could you tell me if the measured protein stability index of YSEYPECCVDVKPISQEKIESSRA [E22S] reaches 4 or more?
OUT: not fulfilled

IN: Could you tell me if the measured protein stability index of YSEYPECCVDVAPISQEKIESERA [K12A] reaches 4 or more?
OUT: fulfilled

IN: Could you tell me if the measured protein stability index of HSEYPECCVDVKPISQEKIESERA [Y1H] reaches 4 or more?
OUT: fulfilled

IN: Could you tell me if the measured protein stability index of YSEYPENCVDVKPISQEKIESERA [C7N] reaches 4 or more?
OUT: fulfilled

IN: Could you tell me if the measured protein stability index of YSEYPECCVDVKPISQWKIESERA [E17W] reaches 4 or more?
OUT: not fulfilled

IN: Could you tell me if the measured protein stability index of YSEYPEFCVDVKPISQEKIESERA [C7F] reaches 4 or more?
OUT: not fulfilled

IN: Could you tell me if the measured protein stability index of YSEYPECCVDVFPISQEKIESERA [K12F] reaches 4 or more?
OUT: not fulfilled

IN: Could you tell me if the measured protein stability index of YSEYPECCVDVKPISQEKIEYERA [S21Y] reaches 4 or more?
OUT: not fulfilled

IN: Could you tell me if the measured protein stability index of YSEYPECCVDVKPISWEKIESERA [Q16W] reaches 4 or more?
OUT: not fulfilled

IN: Could you tell me if the measured protein stability index of YSRYPECCVDVKPISQEKIESERA [E3R] reaches 4 or more?
OUT: fulfilled

IN: Could you tell me if the measured protein stability index of YMEYPECCVDVKPISQEKIESERA [S2M] reaches 4 or more?
OUT: fulfilled

IN: Could you tell me if the measured protein stability index of YSEYPECCVDVKPISQEKIESRRA [E22R] reaches 4 or more?
OUT: not fulfilled

IN: Could you tell me if the measured protein stability index of YSEYPECEVDVKPISQEKIESERA [C8E] reaches 4 or more?
OUT: fulfilled

IN: Could you tell me if the measured protein stability index of YSEYPECCMDVKPISQEKIESERA [V9M] reaches 4 or more?
OUT: not fulfilled

IN: Could you tell me if the measured protein stability index of YSEYPECCVDVKPISQEKIESESA [R23S] reaches 4 or more?
OUT: fulfilled

IN: Could you tell me if the measured protein stability index of YSEYPECCNDVKPISQEKIESERA [V9N] reaches 4 or more?
OUT: fulfilled

IN: Could you tell me if the measured protein stability index of YSEYPECPVDVKPISQEKIESERA [C8P] reaches 4 or more?
OUT: fulfilled

IN: Could you tell me if the measured protein stability index of YSEYPECCVDVKPISQEKKESERA [I19K] reaches 4 or more?
OUT: fulfilled

IN: Could you tell me if the measured protein stability index of WSEYPECCVDVKPISQEKIESERA [Y1W] reaches 4 or more?
OUT: fulfilled

IN: Could you tell me if the measured protein stability index of YSEYPECCVMVKPISQEKIESERA [D10M] reaches 4 or more?
OUT: not fulfilled

IN: Could you tell me if the measured protein stability index of YSEYPECCVDVKPISQEKIESYRA [E22Y] reaches 4 or more?
OUT: not fulfilled

IN: Could you tell me if the measured protein stability index of YSEYPECCFDVKPISQEKIESERA [V9F] reaches 4 or more?
OUT: not fulfilled

IN: Could you tell me if the measured protein stability index of YSEYPEGCVDVKPISQEKIESERA [C7G] reaches 4 or more?
OUT: fulfilled

IN: Could you tell me if the measured protein stability index of YSHYPECCVDVKPISQEKIESERA [E3H] reaches 4 or more?
OUT: fulfilled

IN: Could you tell me if the measured protein stability index of YSEYPECCVDVKPISQGKIESERA [E17G] reaches 4 or more?
OUT: not fulfilled

IN: Could you tell me if the measured protein stability index of YSMYPECCVDVKPISQEKIESERA [E3M] reaches 4 or more?
OUT: fulfilled

The origin of these recorded values is the supplement of paper PMC10567573.
